Values compiled from PubChem BioAssay (NCI).

assay: NCI Yeast Anticancer Drug Screen. Data for the rad14 strain (AID 159);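 further: 0% = growth of vehicle-treated control cultures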; conditions: S. cerevisiae rad14 strain growth inhibition; at 3.7 µM; hits give high values
About 79,000 compounds went through this panel and 15% of them were active in at least one assay; those are over-represented in the sample as a whole.
// reported growth inhibition for each item listed
# unit: % | format: bare number

Example cases with answers are listed next.
Name the reported growth inhibition value associated with the compound CCOC(=O)Nc1ccc2c(c1)Cc1ccccc1-2
-8

Name the reported growth inhibition value associated with the compound COc1ccc(S(=O)(=O)N/N=C\c2cc([N+](=O)[O-])cc(I)c2O)c(OC)c1OC
4

Name the reported growth inhibition value associated with the compound CCOC(=O)[C@]1(Br)CC[C@@]1(Br)C(=O)OCC
-31

Name the reported growth inhibition value associated with the compound CCN1/C(=C/c2ccc3ccccc3[n+]2CC)C=Cc2ccccc21
1

Name the reported growth inhibition value associated with the compound CCCCCC#CCOC(=O)C(=[N+]=[N-])P(=O)(c1ccccc1)c1ccccc1
-6

Others:
Name the reported growth inhibition value associated with the compound Cc1ccc2occ/c(=N\Nc3ccccc3)c2c1
-2

Name the reported growth inhibition value associated with the compound N#C/C(=C1C=C(Br)/C(=N\O)C=C\1Cl)c1cccc2ccccc12
-10

Name the reported growth inhibition value associated with the compound O=C1CC(=O)N(C2CCCCC2)C(=O)N1c1ccccc1S(=O)(=O)Oc1ccccc1
-22

----------
// reported growth inhibition for each item listed
test: NCI Yeast Anticancer Drug Screen. Data for the wt1 strain (AID 149);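 further: 0% = growth of vehicle-treated wt1 cultures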; conditions: S. cerevisiae wt1 strain (SPY 50644) growth inhibition; at 11.0 µM; hits give high values
Compounds without any hit were thinned out: in the full panel of roughly 79,000, 15% have a hit.
# unit: % | format: bare number

Example cases with answers are listed next.
Name the reported growth inhibition value associated with the compound CC[C@@]1(OC(=O)CN(C)C)C(=O)OCc2c1cc1n(c2=O)Cc2cc3c(N)cccc3nc2-1
-1

Name the reported growth inhibition value associated with the compound CCC(C)(c1ccc(O)c(C)c1)c1ccc(O)c(C)c1
29

Name the reported growth inhibition value associated with the compound Cc1c2cc[n+](CCN3CCCCC3)cc2c(C)c2c1[nH]c1ccc(O)cc12
5

Name the reported growth inhibition value associated with the compound CCc1nc(N)nc(N)c1-c1ccc(NCCCCCCN)c([N+](=O)[O-])c1
-1

Name the reported growth inhibition value associated with the compound CC1OC(OC2CCCc3c(O)c4c(c(O)c32)C(=O)c2ccccc2C4=O)CC(N)C1O (configuration not stated)
35

Name the reported growth inhibition value associated with the compound Nc1ccc2c(c1)sc1ccccc12
-10

Others:
Name the reported growth inhibition value associated with the compound Clc1cc(Cc2ccc(N=C/C=C/c3ccccc3)c(Cl)c2)ccc1N=C/C=C\c1ccccc1
-5

Name the reported growth inhibition value associated with the compound Cc1ccc(CNc2ccc(Br)cc2)cc1
-27

Name the reported growth inhibition value associated with the compound Nc1nc(F)nc2c1ncn2C1OC(COP(=O)(O)O)C(O)C1O (configuration not stated)
2

Name the reported growth inhibition value associated with the compound ClCCn1c(CCl)nc2ccc(Cl)cc21
-53

Name the reported growth inhibition value associated with the compound CCOC(=O)CNC(=O)c1[nH]cnc1/N=N/N(C)C
12

Name the reported growth inhibition value associated with the compound O=C1c2ccccc2CCC1(Br)Br
36

----------
assay: NCI Yeast Anticancer Drug Screen. Data for the rad50EPP+ strain (AID 151);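 further: 0% = growth of vehicle-treated control cultures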; settings: S. cerevisiae rad50 mutant strain, at 11.0 µM
Compounds without any hit were thinned out: in the full panel of roughly 79,000, 15% have a hit. Activity calls are given as the source filed them. Cut-off read from the data, not from the text of the source: active = growth inhibition above about 70%; inactive = the rest.
Respond with a class label; see active, inactive

Outcome? O=Nn1c2ccccc2c2cc([N+](=O)[O-])ccc21
inactive

Outcome? Cc1ccccc1NC(=O)Cc1csc(N/N=C2\NC(=O)/C(=C/c3cccc([N+](=O)[O-])c3)S2)n1
inactive

Outcome? COC(=O)c1ccc2c(c1)Cc1ccccc1-2
inactive

Outcome? Clc1cc(-c2ccccc2)nc2ccccc12
inactive

Outcome? Cc1cccc2c1N=C(C(F)(F)F)CC2=O
inactive

Others:
Outcome? O=C1OC2C(O)COC2(OCc2c[nH]c3ccccc23)C1O (stereo unspecified) (tested in a mixture with another compound)
inactive

Outcome? CC1OC(OC2CCCc3c(O)c4c(c(O)c32)C(=O)c2ccccc2C4=O)CC(N)C1O (stereo unspecified)
active

Outcome? S=c1[nH]nc(-c2ccc(Cl)cc2)s1
inactive

Outcome? COC(=O)/C=C1/OC(c2ccc(Br)cc2)=C(Br)C1=O
inactive

Outcome? BrCc1ccccc1C(c1ccccc1)c1ccccc1
inactive

Outcome? COc1ccc(N2C(=O)CC(Cl)C2=O)cc1 (stereo unspecified)
inactive

----------
assay: NCI Yeast Anticancer Drug Screen. Data for the mec2-1 strain (AID 157); settings: S. cerevisiae mec2-1 strain, at 1.2 µM, hits give high values
Compounds without any hit were thinned out: in the full panel of roughly 79,000, 15% have a hit.
MEASURE NAME: growth inhibition (%)
# unit: % | format: bare number

Name the reported growth inhibition value associated with the molecule CC(=O)C1(O)Cc2c(O)c3c(c(O)c2C(OC2CC(N)C(O)C(C)O2)C1)C(=O)c1ccccc1C3=O (stereo unspecified)
15

Name the reported growth inhibition value associated with the molecule S=P(N1CC1)(N1CC1)N1CC1
-5

Name the reported growth inhibition value associated with the molecule N#CC(=C1C=CC(=NO)C=C1)c1ccccc1
-3

Name the reported growth inhibition value associated with the molecule COc1ccc(C(C#N)=C2C=CC(=NO)C=C2)cc1
1

Name the reported growth inhibition value associated with the molecule CC(=O)OCC1OC(O[C@H]2C=C[C@@H](C(=O)OCc3ccccc3)n3c(=O)n(-c4ccccc4)c(=O)n32)C(OC(C)=O)C(OC(C)=O)C1OC(C)=O (stereo partly specified)
2

Name the reported growth inhibition value associated with the molecule COC(=O)c1ccc2c(c1)Cc1ccccc1-2
-4

Name the reported growth inhibition value associated with the molecule CC[C@@]1(OC(=O)CN(C)C)C(=O)OCc2c1cc1n(c2=O)Cc2cc3c(N)cccc3nc2-1
0

Name the reported growth inhibition value associated with the molecule CCCCC1=NNC(=O)C1
-7

Others:
Name the reported growth inhibition value associated with the molecule N#C/C(=C\c1ccccc1)c1ccccc1F
2

Name the reported growth inhibition value associated with the molecule O=C(NCCCCCN1CCC2(CCCCC2)CC1)C(C1CCCCC1)C1CCCCC1
22

Name the reported growth inhibition value associated with the molecule COc1ccc(SCc2cc(OC)ccc2OC)cc1
-1

Name the reported growth inhibition value associated with the molecule O=C(O)c1cccc2cccc(-c3c4ccc(=O)cc-4oc4cc(O)ccc34)c12
18

----------
Assay: NCI Yeast Anticancer Drug Screen. Data for the wt2 strain (AID 169);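 further: 0% = growth of vehicle-treated yeast cultures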
Details: S. cerevisiae wt2 strain growth inhibition; at 1.2 µM; hits give high values
Procedure: Growth inhibition of yeast strains with defined genetic alterations is measured as a screen for potential anti-cancer activity. Selected strains with alterations in DNA damage repair or cell cycle control were exposed to compounds and growth inhibition was measured relative to vehicle treated controls. The strain used in this assay is wt2
About 79,000 compounds went through this panel and 15% of them were active in at least one assay; those are over-represented in the sample as a whole.
MEASURE NAME: growth inhibition (%)
# unit: % | format: bare number

Example cases with answers are listed next.
Name the reported growth inhibition value associated with the compound COc1ccc(N=N/C(=N\NC(=O)c2cc(Br)ccc2O)c2ccc(N(CCC#N)CCC#N)cc2OC)cc1
-20

Name the reported growth inhibition value associated with the compound O=C1C(Cl)=C(Cl)C(Cl)(Cl)C(Cl)C1(Cl)Cl (stereo unspecified)
-14

Name the reported growth inhibition value associated with the compound CN(C)c1ccc(/C=C/c2ccnc3ccccc23)cc1N
-5

Name the reported growth inhibition value associated with the compound CN(NC(=O)/C(=C/c1ccc(O)cc1)NC(=O)c1ccccc1)c1ccnc2cc(Cl)ccc12
-3

Name the reported growth inhibition value associated with the compound CCOC(=O)c1csc(Br)n1
-2

Name the reported growth inhibition value associated with the compound COC(=O)CSc1nnc(CSc2ccc(Cl)cc2)n1-c1ccccc1
-1

Name the reported growth inhibition value associated with the compound O=C1c2ccccc2C(=O)c2cc(S(=O)(=O)Nc3ccccc3)ccc21
3

Name the reported growth inhibition value associated with the compound Cc1cc(OCc2ccccc2)ccc1[N+](=O)[O-]
-11

Name the reported growth inhibition value associated with the compound N#C/C(=C1C=C/C(=N/O)c2ccccc2/1)c1ccccc1
-4

Name the reported growth inhibition value associated with the compound O=C(Nc1cccc(C(F)(F)F)c1)Oc1ccc(Cl)cc1C(=O)c1ccccc1
15

Next compound, please.
Name the reported growth inhibition value associated with the compound Cc1cc(C(C)(C)CC(C)(C)C)cc(O)c1O
2

----------
// reported growth inhibition for each item listed
test: NCI Yeast Anticancer Drug Screen. Data for the rad14 strain (AID 159);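 further: 0% = growth of vehicle-treated control cultures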; conditions: S. cerevisiae rad14 strain growth inhibition; at 33.0 µM; hits give high values
This is part of a sample that, as a whole, favours compounds with a hit. Of some 79,000 tested, about 15% had one in any assay.
# unit: % | format: bare number

Example cases with answers are listed next.
Name the reported growth inhibition value associated with the compound c1ccc2c(c1)ccc1c3ccncc3ccc21
99

Name the reported growth inhibition value associated with the compound CN(Cc1cnc2nc(N)nc(N)c2n1)c1ccc(C(=O)NC(CCC(=O)O)C(=O)O)c2ccccc12 (stereo unspecified)
82

Others:
Name the reported growth inhibition value associated with the compound CCOC(=O)c1csc(Br)n1
-4

Name the reported growth inhibition value associated with the compound O=C1c2ccccc2CCC1(Br)Br
99

Name the reported growth inhibition value associated with the compound Cc1ccc2occ/c(=N\Nc3ccccc3)c2c1
39
